Kindly supply the reported ED50 values for the records listed here.
# Tested on: male ddY mouse
# Assay Remarks: Analgesic activity test by mouse acetic acid writhing method
# Assay type: in vivo
# Protocol Conditions: subcutaneous, 15 minutes before i.p. 0.6% acetic acid; dosage to halve the number of writhing response
Report the value in mg/kg with no unit label.

Challenge: Missing value: ED50, male ddY mouse, entry O=C(O)C(O)C(O)C(=O)O.O=C1C2=C(CCCC2)C(=O)N1[C@@H]1CC[C@@]2(O)[C@H]3Cc4ccc(O)c5c4[C@@]2(CCN3CC2CC2)[C@H]1O5 . Fill in?
Response given: 0.032

Challenge: Missing value: ED50, male ddY mouse, entry O=C1c2ccccc2C(=O)N1[C@@H]1CC[C@@]2(O)[C@H]3Cc4ccc(O)c5c4[C@@]2(CCN3CC2CC2)[C@H]1O5 [Compound 10f] . Fill in?
Response given: 0.037

Challenge: What ED50 appears in the records for this compound with male ddY mouse? O=C(O)C(O)C(O)C(=O)O.O=C1c2ccccc2C(=O)N1[C@@H]1CC[C@@]2(O)[C@H]3Cc4ccc(O)c5c4[C@@]2(CCN3CC2CC2)[C@H]1O5
Response given: 0.019
